Assay: Shn3 3'UTR reporter inhibitors, dose response, cell-based, Clone20 osteoblasts, firefly luciferase, cherry-picked (AID 624132);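 also: firefly luciferase luminescence from reporter carrying the Shn3 3'UTR in osteoblasts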
Type: functional
Active and inactive are the calls of the source. Rule as the data show it: actives have a measured AC50 and inactives only a lower limit.
result-type: AC50

Sure, the documented AC50 for COc1ccc(NC(=O)c2nc(S(=O)(=O)Cc3cccc(C)c3)ncc2Cl)c(OC)c1 is 0.299 µM (active)

Entry CCOC(=O)c1cnc(-n2nc(C)cc2C)nc1NCc1ccc2c(c1)OCO2 ; AC50 = 8.74 µM (active)

Input N#CC(c1ccc(Cl)cc1)c1ccc2c(C(F)(F)F)cc(C(F)(F)F)nc2n1 (centres undefined) . Output AC50: 0.487 µM (active)

Consider Cc1ccc(-c2nc(NC(=O)c3nn(C)cc3[N+](=O)[O-])sc2C)cc1C . Its measured AC50 is 2.25 µM (active)

Data origin, for the record: ChEMBL document CHEMBL1201862
